Target: biuret hydrolase (Rhizobium johnstonii)
Sequence (Q1M7F4 whole entry): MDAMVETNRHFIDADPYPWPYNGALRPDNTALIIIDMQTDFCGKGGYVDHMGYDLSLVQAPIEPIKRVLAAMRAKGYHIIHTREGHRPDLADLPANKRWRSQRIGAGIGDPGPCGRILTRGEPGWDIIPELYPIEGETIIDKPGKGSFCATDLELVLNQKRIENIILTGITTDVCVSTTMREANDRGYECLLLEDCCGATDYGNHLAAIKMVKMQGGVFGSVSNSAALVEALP
pKi: −log10 of the molar value.
Measure name: pKi

INSERT INTO measurements (structure_smiles_string, assay_result) VALUES
  ('NC(N)=O', 1.47);
